The measured values listed here are drawn from ChEMBL document CHEMBL1201862.

# System: MOLT-4
# EXPERIMENT_NOTES: NCI tumour cell line growth inhibition, 48 h
The source made the active and inactive calls. Rule as the data show it: active = GI50 up to about 1.1 µM and inactive = higher.
REPORTED_METRIC: GI50

C=C(C)C1CC2=C(O1)C(=O)c1ccccc1C2=O (stereo not drawn) [DEHYDROISO-ALPHA-LAPACHONE] = 10.6 µM (inactive)
CC(C)(C)OC(=O)N1Cc2cc(O)ccc2C[C@H]1C(=O)O = > 100 µM (inactive)
Nc1nc(N)c(-c2ccccc2)c(C(=O)Nc2nccs2)n1 = > 100 µM (inactive)
COc1ccc(C(=O)OC2C=COC(C)C2OC(=O)c2ccc(OC)cc2)cc1 (stereo not given) = 16.3 µM (inactive)

# get_value(readout='GI50', item= Cc1ccc2nc(Cl)c(/C=N/N3C(=O)/C(=C/c4ccc(N(C)C)cc4)N=C3c3ccccc3)cc2c1 ) 24.4 µM (inactive)

# get_value(readout='GI50', item= COc1cc(/C=C2/C(=O)N(C(=O)OCC(C)C)C(Cc3cc(OC)c(OC)c(C)c3OC)C(=O)N2Cc2ccccc2)c(OC)c(C)c1OC (stereo not given) ) 7.35 µM (inactive)

# get_value(readout='GI50', item= COc1ccc2cc(C(=O)NCCc3ccccc3)ccc2c1OC ) > 100 µM (inactive)

====

# Tested on: LOX IMVI
# EXPERIMENT_NOTES: NCI tumour cell line growth inhibition, 48 h
The source made the active and inactive calls. Cut-off read from the data, not from the text of the source: active = GI50 up to about 1.1 µM and inactive = higher.
Write down one outcome, taken from y for active, n for inactive

What did this assay record as the result for NS(=O)(=O)c1ccc(/N=N/c2ncccc2O)cc1 ? n

What did this assay record as the result for COc1ccc2nc3cc(Cl)ccc3c(NCCCN3CCN(CCCNc4ccc5nnn6c7ccccc7c(=O)c4c56)CC3)c2c1 ? y

What did this assay record as the result for CCOC(=O)c1csc(NC(=O)CN(C)C)n1 ? n

What did this assay record as the result for COc1ccc(CNc2ccn(C3OC(CO)C(O)C3O)c(=O)n2)cc1 (stereo not given) ? n

What did this assay record as the result for CC(=O)Nc1nc(C)c(S(=O)(=O)NC(=O)N2c3ccccc3CCc3ccccc32)s1 ? n

====

# Tested on: NCI-H23
# EXPERIMENT_NOTES: NCI tumour cell line growth inhibition, 48 h
Activity calls are given as the source filed them. Rule as the data show it: active = GI50 up to about 1.1 µM and inactive = higher.
Write down one outcome, taken from 1 (yes) for active, 0 (no) for inactive

Example cases with answers are listed next.
COC(C/C=C\C=C\CC/C=C/CC(C)/C=C/C(=C\C(=O)O)CC(=O)O)/C(C)=C\C=C(/C)C(=O)O (stereo not given) = 0 (no)
c1ccc2c(NCCCCCCNc3c4ccccc4nc4ccccc34)c3ccccc3nc2c1 = 1 (yes)

What did this assay record as the result for Cc1cc(N(CCC#N)S(=O)(=O)c2ccccc2)ccc1C=O ? 0 (no)

What did this assay record as the result for C=C(C)C1CCC2=CC(CC3(C)OC3C3=CC(C(=O)OC)=C(C1)O3)OC2=O (stereo not given) ? 0 (no)

What did this assay record as the result for CC(=O)N1N=C(c2ccccc2Nc2ccccc2C2=NN(C(C)=O)C(c3ccccc3)O2)OC1c1ccccc1 (stereo not given) ? 0 (no)

====

# System: RPMI-8226
# EXPERIMENT_NOTES: NCI tumour cell line growth inhibition, 48 h
The source made the active and inactive calls. No stated cut-off is given here; in the data, active = GI50 up to about 1.1 µM and inactive = higher.
REPORTED_METRIC: GI50

Field: example entries. Status: answers known.
CCOC(=O)Cc1c(C(=O)OCC)[n+]([O-])c2cc(Cl)c(Cl)cc2[n+]1[O-] = 0.431 µM (active)
O=C1C[C@@H](Sc2ccccc2)C2(OCCO2)C2ON3CCCC[C@H]3[C@H]12 (stereo not given in full) = 3.07 µM (inactive)
C/C(Sc1ccccc1)=C1/CCCN(Cc2ccccc2)C1 = 14.5 µM (inactive)
C#CCN(Cc1ccc2[nH]c(N)nc(=O)c2c1)c1ccc(C(=O)NC(CCC(=O)O)C(=O)O)cc1 (stereo not given) = 7.46 µM (inactive)

# get_value(readout='GI50', item= C#CCOC(=O)c1ccc(OC(C)=O)cc1 ) > 100 µM (inactive)

# get_value(readout='GI50', item= CCCCn1c(C)c2c(c1C)C(=O)N(CC(O)CN1CCc3ccccc3C1)C2=O (stereo not given) ) 76.9 µM (inactive)

# get_value(readout='GI50', item= COC(=O)C1=C(C(=O)OC)C2C=CC1C1C(Cl)=C(Cl)C21 (stereo not given) ) > 100 µM (inactive)

# get_value(readout='GI50', item= O=C1C[C@H]2[C@@H](O1)[C@@H](O)CN1C(=O)c3ccccc3[C@H]21 ) > 100 µM (inactive)

# get_value(readout='GI50', item= COC(=O)c1ccccc1N1C(=O)Cc2ccccc2C1=O ) > 100 µM (inactive)

# get_value(readout='GI50', item= NC1CCCCC1.O=C(O)C1(P(=O)(O)O)CC1 ) > 100 µM (inactive)
